test system: Ps. fluorescens biovar. V, strain AN103; assay: Relative growth of strain AN103 on a range of carbon substrates (absorbance at 600 nm); format: cell-based, Pseudomonas fluorescens; conditions: Pseudomonas fluorescens; substrate 10 mM on MM Medium, 48 h at 25° C., absorbance at 600 nm; read-out: Relative Growth (%)
Give activity at 10000 µM for every item shown.
One number for each entry, in %.

>>> numeric_readout("COc1cc(/C=C/C(=O)O)ccc1O [Ferulic acid, 4-hydroxy-3-methoxy-trans-cinnamate]")
100
>>> numeric_readout("O=C(O)/C=C/c1ccc(O)c(O)c1 [Caffeic acid, 3,4-dihydroxy-trans-cinnamate]")
79
>>> numeric_readout("O=C(O)C=Cc1ccccc1")
0
>>> numeric_readout("COc1cc(C(=O)O)ccc1O")
140

Turning now to a further molecule:
Find the measured activity at 10000 µM of COc1cc(/C=C/C(=O)O)cc(OC)c1O and report it.
0

The reported numbers originate from patent US6664088B2.
